Data origin: paper PMC9146377

experiment summary: Phase I and phase II metabolic stability in human liver S9 fractions
Format: in vitro ADME
condition description: LC-MS/MS, read-out: half-life time (t½)
endpoint name: half-life

COC(=O)N[C@@H](C(=O)N1CCC[C@H]1c1ncc(-c2cccc(C#CC#Cc3cccc(-c4cnc([C@@H]5CCCN5C(=O)[C@H](NC(=O)OC)c5ccccc5)[nH]4)c3)c2)[nH]1)c1ccccc1 [Compound 10a] has a reported half-life of > 2 h

* * *

experiment summary: Cytotoxicity assay (intracellular ATP levels) in Huh5-2 replicon cells
Assay type: cell-based
condition description: human, Huh5-2 cells, read-out: HCV Replicon 1b CC50
Method: All synthesized compounds were tested against HCV genotype 1b Con-1 subgenomic replicon in the Huh-5-2 stable cell line. Specifically, their activity against viral replication was estimated by measuring firefly luciferase, which is co-expressed by the bicistronic replicon, and their half-maximal effective concentrations (EC50) were determined. […] Intracellular ATP levels were measured to determine the cytotoxicity of the compounds in the treated cells. […]
endpoint name: CC50 at 72 h

1) CCOC(=O)N[C@@H](CC(C)C)C(=O)N1CCC[C@H]1c1ncc(-c2cccc(C#CC#Cc3cccc(-c4cnc([C@@H]5CCCN5C(=O)[C@H](CC(C)C)NC(=O)OCC)[nH]4)c3)c2)[nH]1 [Compound 7a]	> 100 µM
2) COC(=O)N[C@@H](C(=O)N1CCC[C@H]1c1ncc(-c2ccc(C#CC#Cc3ccc(-c4cnc([C@@H]5CCCN5C(=O)[C@H](NC(=O)OC)C(C)C)[nH]4)cc3)cc2)[nH]1)C(C)C [Compound 2b]	> 100 µM

Pending compound:
COC(=O)N[C@@H](C(=O)N1CCC[C@H]1c1ncc(-c2ccc(C#CC#Cc3ccc(-c4cnc([C@@H]5CCCN5C(=O)[C@H](NC(=O)OC)c5ccccc5)[nH]4)cc3)cc2)[nH]1)c1ccccc1 [Compound 10b] has a reported CC50 at 72 h of > 100 µM

* * *

experiment summary: Cytotoxicity assay (intracellular ATP levels) in Huh5-2 replicon cells
Assay type: cell-based
condition description: human, Huh5-2 cells, read-out: HCV Replicon 1b CC50
Give measured CC50 at 72 h for each item. Keep answers brief.

Previously resolved entries follow.
1) COC(=O)N[C@H](C(=O)N1CCC[C@H]1c1ncc(-c2cccc(C#CC#Cc3cccc(-c4cnc([C@@H]5CCCN5C(=O)[C@@H](NC(=O)OC)c5ccccc5)[nH]4)c3)c2)[nH]1)c1ccccc1	> 100 µM
2) CCOC(=O)N[C@H](CC(C)C)C(=O)N1CCC[C@H]1c1ncc(-c2cccc(C#CC#Cc3cccc(-c4cnc([C@@H]5CCCN5C(=O)[C@@H](CC(C)C)NC(=O)OCC)[nH]4)c3)c2)[nH]1	> 100 µM
3) COC(=O)N[C@H](C(=O)N1CCC[C@H]1c1ncc(-c2ccc(C#CC#Cc3ccc(-c4cnc([C@@H]5CCCN5C(=O)[C@@H](NC(=O)OC)C(C)C)[nH]4)cc3)cc2)[nH]1)C(C)C	> 100 µM
4) COC(=O)N[C@H](C(=O)N1CCC[C@H]1c1nc(-c2ccc(-c3ccc(-c4c[nH]c([C@@H]5CCCN5C(=O)[C@@H](NC(=O)OC)C(C)C)n4)cc3)cc2)c[nH]1)C(C)C [Daclatasvir, reference compound]	17.7 µM

`CCOC(=O)N[C@H](CC(C)C)C(=O)N1CCC[C@H]1c1ncc(-c2ccc(C#CC#Cc3ccc(-c4cnc([C@@H]5CCCN5C(=O)[C@@H](CC(C)C)NC(=O)OCC)[nH]4)cc3)cc2)[nH]1` has a reported CC50 at 72 h of > 100 µM

* * *

Tested on: HCV genotype 1b Con-1 subgenomic replicon
experiment summary: Anti-HCV luciferase assay, genotype 1b (Con1) subgenomic replicon in Huh5-2 cells
Type: cell-based, Hepatitis C virus
condition description: Hepatitis C virus, Huh-5-2, Table S1, in vitro result versus genotype 1b; read-out: NS5A EC50
endpoint name: EC50 (nM)
Give bare numbers, in nM.

`COC(=O)N[C@H](CC(C)C)C(=O)N1CCC[C@H]1c1ncc(-c2ccc(C#CC#Cc3ccc(-c4cnc([C@@H]5CCCN5C(=O)[C@@H](CC(C)C)NC(=O)OC)[nH]4)cc3)cc2)[nH]1` has a reported EC50 of 66.1

* * *

Tested on: HCV genotype 1b Con-1 subgenomic replicon
experiment summary: Anti-HCV luciferase assay, genotype 1b (Con1) subgenomic replicon in Huh5-2 cells
Assay type: cell-based, Hepatitis C virus
condition description: Huh5-2 cells, Con1 strain, F-Luc, 72 h; mean of three experiments; read-out: HCV Replicon 1b EC50
Give measured pEC50 for each item. Keep answers brief.
Numbers only, as −log10 of the molar value.

Previously resolved entries follow.
1. CCOC(=O)N[C@@H](CC(C)C)C(=O)N1CCC[C@H]1c1ncc(-c2cccc(C#CC#Cc3cccc(-c4cnc([C@@H]5CCCN5C(=O)[C@H](CC(C)C)NC(=O)OCC)[nH]4)c3)c2)[nH]1	7.01
2. COC(=O)N[C@H](C(=O)N1CCC[C@H]1c1ncc(-c2cccc(C#CC#Cc3cccc(-c4cnc([C@@H]5CCCN5C(=O)[C@@H](NC(=O)OC)c5ccccc5)[nH]4)c3)c2)[nH]1)c1ccccc1	7.21
3. CCOC(=O)N[C@H](CC(C)C)C(=O)N1CCC[C@H]1c1ncc(-c2cccc(C#CC#Cc3cccc(-c4cnc([C@@H]5CCCN5C(=O)[C@@H](CC(C)C)NC(=O)OCC)[nH]4)c3)c2)[nH]1	7.07
4. COC(=O)N[C@@H](CC(C)C)C(=O)N1CCC[C@H]1c1ncc(-c2ccc(C#CC#Cc3ccc(-c4cnc([C@@H]5CCCN5C(=O)[C@H](CC(C)C)NC(=O)OC)[nH]4)cc3)cc2)[nH]1	7.79
5. COC(=O)N[C@H](CC(C)C)C(=O)N1CCC[C@H]1c1ncc(-c2cccc(C#CC#Cc3cccc(-c4cnc([C@@H]5CCCN5C(=O)[C@@H](CC(C)C)NC(=O)OC)[nH]4)c3)c2)[nH]1	7.01

Pending molecule:
COC(=O)N[C@@H](C(=O)N1CCC[C@H]1c1ncc(-c2cccc(C#CC#Cc3cccc(-c4cnc([C@@H]5CCCN5C(=O)[C@H](NC(=O)OC)c5ccccc5)[nH]4)c3)c2)[nH]1)c1ccccc1 [Compound 10a] has a reported pEC50 of 10.00

* * *

Tested on: (+) strand HCV RNA, Con1 (GT 1b) subgenomic replicon
experiment summary: RT-qPCR quantification of HCV RNA in Huh5-2 replicon cells
Assay type: cell-based, Hepatitis C virus
condition description: RT-qPCR, normalized to YWHAZ
endpoint name: EC50 (nM)
Give bare numbers, in nM.

// EC50 ((+) strand HCV RNA, Con1 (GT 1b) subgenomic replicon) for COC(=O)N[C@@H](C(=O)N1CCC[C@H]1c1ncc(-c2cccc(C#CC#Cc3cccc(-c4cnc([C@@H]5CCCN5C(=O)[C@H](NC(=O)OC)c5ccccc5)[nH]4)c3)c2)[nH]1)c1ccccc1 [Compound 10a] = 0.25
